Test system: Jurkat T
Experiment: Inhibition of NFAT (unknown origin) activation transfected in human Jurkat T cells expressing firefly luciferase gene at 10 uM preincubated with compound for 30 mins followed by PMA/ionomysin addition and measured after 18 hrs by luminometer relative to control
Format: cell-based
Details: time 18.5 hrs
Quantity Measured: inhibition (%)
I only need the number, in %, no unit after it.

Look over these answered cases.
Jurkat T / inhibition / Cc1cnccc1NC(=O)c1nn(CC2CC2)c2ccccc12 : value?
86.9

Given the entry O=C(Nc1ccncc1F)c1nn(C(=O)C2CC2)c2ccccc12 , what inhibition was observed with Jurkat T?
76.8

So what inhibition did O=C(Nc1ccncc1F)c1nn(CC2CC2)c2ccccc12 get with Jurkat T?
97.9

# returns recorded inhibition (system: Jurkat T) for O=C(Nc1ccncc1F)c1nn(CC2CC2)c2ccc(F)cc12
77.3

Test system Jurkat T; read-out inhibition; what value for O=C(Nc1ccncc1F)c1nn(CC2CCCCC2)c2ccccc12 ?
88.4

Below: the item to evaluate.
For Jurkat T, provide inhibition of O=C(Nc1ccncc1F)c1nn(CC2CCC2)c2ccccc12 please.
80.5
